- Measured Target: UniProt P35414
- Sequence (P35414 whole entry): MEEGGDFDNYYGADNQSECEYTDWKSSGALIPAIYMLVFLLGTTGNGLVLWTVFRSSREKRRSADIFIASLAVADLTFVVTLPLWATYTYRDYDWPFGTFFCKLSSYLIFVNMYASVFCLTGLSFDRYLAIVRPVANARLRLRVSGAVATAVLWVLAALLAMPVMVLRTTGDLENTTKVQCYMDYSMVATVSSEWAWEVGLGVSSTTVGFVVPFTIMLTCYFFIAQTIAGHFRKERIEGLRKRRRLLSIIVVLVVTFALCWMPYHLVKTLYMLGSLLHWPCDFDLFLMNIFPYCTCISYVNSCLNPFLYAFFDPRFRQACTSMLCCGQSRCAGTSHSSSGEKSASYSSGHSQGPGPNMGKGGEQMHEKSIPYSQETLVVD
- Assay Comment: biochemical
- Format: biochemical
- Test Conditions: [35S]GTPγS binding, membranes from CHO cells stably expressing human APJ receptor; read-out: Activity hAPJ SPA EC50 IP
Measure: log10 EC50 (log10 of the value in µM)

[[record]]
compound = "COc1ncnc(OC)c1-n1c(NS(=O)(=O)[C@@H](C)[C@H](C)c2ncc(Cl)cn2)nnc1[C@@H](C)OC (single isomer, unassigned) [Example 4.0]"
value_reported = -0.57

[[record]]
compound = "COCc1nnc(NS(=O)(=O)[C@@H](C)[C@H](C)c2ncc(Cl)cn2)n1-c1cc(OC)ccc1Cl [Example 162.0]"
value_reported = -1.62

[[record]]
compound = "COCc1nnc(NS(=O)(=O)[C@@H](C)[C@H](C)c2cnc(OC)cn2)n1-c1c(OC)cccc1OC [Example 74.0]"
value_reported = -1.80

[[record]]
compound = "CCCCc1nnc(NS(=O)(=O)[C@@H](C)[C@H](C)c2ncc(Cl)cn2)n1-c1c(OC)cccc1OC [Example 164.0]"
value_reported = -3.08

[[record]]
compound = "CCCCc1nnc(NS(=O)(=O)[C@@H](C)[C@H](C)c2ncc(C)cn2)n1-c1c(OC)cccc1OC [Example 176.0]"
value_reported = -2.72

[[record]]
compound = "COc1ncnc(OC)c1-n1c(COC(F)F)nnc1NS(=O)(=O)[C@@H](C)[C@H](C)c1ncc(Cl)cn1 [Example 127.0]"
value_reported = -1.42

